- target_or_test_system: human S1P1 receptor (Homo sapiens, UniProt P21453)
- Sequence (P21453 whole entry): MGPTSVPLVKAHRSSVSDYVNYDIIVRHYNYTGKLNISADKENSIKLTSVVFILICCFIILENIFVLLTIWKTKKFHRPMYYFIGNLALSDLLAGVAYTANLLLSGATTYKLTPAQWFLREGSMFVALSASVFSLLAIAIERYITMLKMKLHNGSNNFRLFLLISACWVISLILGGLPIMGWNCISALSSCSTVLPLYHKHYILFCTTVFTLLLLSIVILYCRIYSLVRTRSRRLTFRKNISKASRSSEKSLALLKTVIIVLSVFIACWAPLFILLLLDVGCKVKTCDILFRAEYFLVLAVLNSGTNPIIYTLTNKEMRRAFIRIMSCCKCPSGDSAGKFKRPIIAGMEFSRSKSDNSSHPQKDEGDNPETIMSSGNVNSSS
- experiment: GTPγS assay to determine EC50 values
- experimental_setup: 35S-GTPγS binding, membrane preparations of CHO cells expressing recombinant human S1P1 receptor
measured_quantity: pEC50
Kindly note that pEC50 refers to -log10 of the concentration in mol/L and answer with the value alone.

Would you mind telling me what pEC50 value was observed for Cc1cc(-c2nc(-c3cc(C)c(OCC(O)CNC(=O)CO)c(C)c3)no2)ccc1OC(C)C (centres unmarked) ?
10.00

Fill blank: measured pEC50 of the compound Cc1cc(-c2nc(-c3cc(C)c(OCC(O)CNC(=O)CO)c(C)c3)no2)ccc1CC(C)C (centres unmarked) is ____.
9.10
